Tested on: SF-268 human CNS adenocarcinoma cells
PROTOCOL: cell proliferation assay, SF-268
Type: cell-based
PROTOCOL_CONDITIONS: Homo sapiens, SF-268, read-out: SF268 Giloblast
ASSAY_METRIC: pIC50
One number for each entry, as −log10 of the molar value.

Find the measured pIC50 of CC(=O)CC(c1ccccc1)c1c(O)c2ccccc2oc1=O (centres unmarked) [WARF Analog A, reference compound] and report it. 3.12

* * *

Tested on: MCF7 human breast adenocarcinoma cells
PROTOCOL: cell proliferation assay, MCF7
Type: cell-based
PROTOCOL_CONDITIONS: Table 3 summary of most active compounds, listed as L-lyxose
ASSAY_METRIC: pIC50
One number for each entry, as −log10 of the molar value.

Give a short answer stating reported pIC50 for CON(C(C)CC(c1ccccc1)c1c(O)c2ccccc2oc1=O)C1OCC(O)C(O)C1O (mixture of isomers) . 4.74

* * *

System: NCI-H460 human lung adenocarcinoma cells
PROTOCOL: cell proliferation assay, NCI-H460
Format: cell-based
PROTOCOL_CONDITIONS: Homo sapiens, NCI-H460, Table 3 summary of most active compounds
ASSAY_METRIC: IC50 (µM)
Give bare numbers, in µM.

Find the measured IC50 of CC(=O)CC(c1ccccc1)c1c(O)c2ccccc2oc1=O (centres unmarked) [WARF Analog A, reference compound] and report it. 557

* * *

Field: IC50. Provide a value for each of the compounds that follow.
System: SKOV-3 human ovarian adenocarcinoma cells
PROTOCOL: cell proliferation assay, SKOV-3
Assay type: cell-based
PROTOCOL_CONDITIONS: Table 3 summary of most active compounds, read-out: SKOV3 Ovarian
Text: In this Example, the warfarin neoglycosides of the invention were screened for anti-tumor activity in cell proliferation assays using the following tumor cells lines: A549—human lung adenocarcinoma; H1299—human lung adenocarcinoma (p53 null); HCT-15—human colorectal adenocarcinoma; HT-29—human colorectal adenocarcinoma; MCF7—human breast adenocarcinoma; NCI-H460—human lung adenocarcinoma; SF-268—human CNS adenocarcinoma; and SKOV-3—human ovarian adenocarcinoma. […]

Consider the reported IC50 for these compounds:
>>> value_observed("CON(C(C)CC(c1ccccc1)c1c(O)c2ccccc2oc1=O)C1O[C@H](COCc2ccccc2)[C@@H](OCc2ccccc2)[C@@H]1OCc1ccccc1 (stereo partly shown)")
"27 µM"
>>> value_observed("CON(C(C)CC(c1ccccc1)c1c(O)c2ccccc2oc1=O)C1CC(O)C(O)CO1 (mixture of isomers)")
"> 100 µM"
>>> value_observed("CON(C(C)CC(c1ccccc1)c1c(O)c2ccccc2oc1=O)C1CC(C)(O)C(O)C(C)O1 (mixture of isomers)")
"> 100 µM"

Next compound, IC50 to be filled in.
For CON(C(C)CC(c1ccccc1)c1c(O)c2ccccc2oc1=O)C1C[C@@H](O)[C@@H](O)CO1 (stereo partly shown) , write its IC50. > 100 µM

* * *

Test system: MCF7 human breast adenocarcinoma cells
PROTOCOL: cell proliferation assay, MCF7
Assay type: cell-based
PROTOCOL_CONDITIONS: Table 3 summary of most active compounds
Could you please report measured pIC50 for the items listed next?
One number for each entry, as −log10 of the molar value.

For orientation, consider the following solved cases.
>>> value_observed("CON(C(C)CC(c1ccccc1)c1c(O)c2ccccc2oc1=O)C1O[C@H](COCc2ccccc2)[C@@H](OCc2ccccc2)[C@@H]1OCc1ccccc1 (some centres unmarked)")
4.54
>>> value_observed("CON(C(C)CC(c1ccccc1)c1c(O)c2ccccc2oc1=O)C1CC(O)C(O)CO1 (mixture of isomers)")
4.11

Give the measured pIC50 for CON(C(C)CC(c1ccccc1)c1c(O)c2ccccc2oc1=O)C1C[C@@H](O)[C@@H](O)CO1 (some centres unmarked) 4.18
